Biological target: Tlp3 (Campylobacter jejuni, UniProt Q0P864)
Sequence (Q0P864 entry or part of it): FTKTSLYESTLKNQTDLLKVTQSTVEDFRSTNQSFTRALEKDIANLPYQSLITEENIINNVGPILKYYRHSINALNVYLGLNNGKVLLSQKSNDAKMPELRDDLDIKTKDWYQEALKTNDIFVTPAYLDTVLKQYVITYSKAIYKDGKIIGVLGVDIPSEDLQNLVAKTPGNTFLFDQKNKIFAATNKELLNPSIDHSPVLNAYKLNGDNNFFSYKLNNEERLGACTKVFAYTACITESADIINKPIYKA
Test: biochemical
Format: binding
pKd: −log10 of the molar value.
// label = Condition met if pKd is not less than 5, otherwise Condition not met

compound: c1ncc2nc[nH]c2n1
assigned category: Condition not met

compound: NCCCC[C@H](N)C(=O)O
assigned category: Condition met

compound: C[C@H](O)[C@@H](O)[C@@H](O)[C@H](O)C=O
assigned category: Condition not met

compound: N[C@H]1C(O)O[C@H](CO)[C@@H](O)[C@@H]1O (stereo partly drawn)
assigned category: Condition met

compound: Cc1ncc(C[n+]2csc(CCO)c2C)c(N)n1
assigned category: Condition not met

---

Reported pKd values for a set of molecules
Molecular target: Tlp3^LBD W151A (Campylobacter jejuni, UniProt Q0P864, W151A)
Sequence (Q0P864 41-290 W151A): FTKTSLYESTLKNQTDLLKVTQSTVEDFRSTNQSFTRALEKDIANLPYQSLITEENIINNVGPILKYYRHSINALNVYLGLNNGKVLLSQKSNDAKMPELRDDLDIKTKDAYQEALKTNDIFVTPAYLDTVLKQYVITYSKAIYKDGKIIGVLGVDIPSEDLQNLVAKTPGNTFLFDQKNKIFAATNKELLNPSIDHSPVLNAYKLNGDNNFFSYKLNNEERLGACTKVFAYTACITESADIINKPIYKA
Test: biochemical
pKd: −log10 of the molar value.
observed property: pKd

molecule: CC(=O)N[C@H]1[C@H]([C@H](O)[C@H](O)CO)OC(O)(C(=O)O)C[C@@H]1O (stereo partly drawn)
measured: 4.76

molecule: NCCCC[C@H](N)C(=O)O
measured: 4.56

molecule: N[C@H]1C(O)O[C@H](CO)[C@@H](O)[C@@H]1O (stereo partly drawn)
measured: 4.46

molecule: Cc1ncc(C[n+]2csc(CCO)c2C)c(N)n1
measured: 4.13

molecule: C[C@H](O)[C@@H](O)[C@@H](O)[C@H](O)C=O
measured: 4.17

molecule: c1ncc2nc[nH]c2n1
measured: 4.44

---

Biological target: Tlp2 (Campylobacter jejuni, UniProt Q0PBZ3)
Sequence (Q0PBZ3 entry or part of it): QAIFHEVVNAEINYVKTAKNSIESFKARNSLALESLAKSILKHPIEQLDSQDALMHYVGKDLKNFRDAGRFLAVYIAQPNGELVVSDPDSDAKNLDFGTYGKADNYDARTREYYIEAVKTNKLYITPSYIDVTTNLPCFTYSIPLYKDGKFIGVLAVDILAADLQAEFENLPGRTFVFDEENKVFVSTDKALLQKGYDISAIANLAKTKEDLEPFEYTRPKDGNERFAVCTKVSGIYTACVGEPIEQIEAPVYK
Assay: biochemical
Type: binding
Details: SPR KD, mean ± SD; NB = no binding; read-out: Tlp2 Affinity
pKd: −log10 of the molar value.

molecule: C[C@H](O)[C@@H](O)[C@@H](O)[C@H](O)C=O [Fucose]
bound sign: =
pKd: 4.81
//
molecule: O=C(O)CC(O)C(=O)O (stereo not drawn) [Malic acid]
bound sign: <
pKd: 2.00
//
molecule: CC[C@H](C)[C@H](N)C(=O)O [Isoleucine]
bound sign: <
pKd: 3.70
//
molecule: OC[C@H]1OC(O)[C@@H](O)[C@@H](O)[C@@H]1O (stereo partly drawn) [Mannose]
bound sign: =
pKd: 4.89
//
molecule: c1ncc2nc[nH]c2n1 [Purine]
bound sign: =
pKd: 5.27
//
molecule: N[C@H]1C(O)O[C@H](CO)[C@@H](O)[C@@H]1O (stereo partly drawn) [Glucosamine]
bound sign: <
pKd: 3.70

---

Target: Tlp3 (Campylobacter jejuni, UniProt Q0P864)
Experiment: biochemical
Format: binding
Settings: read-out: Tlp3 Affinity
observed property: Kd

compound: CSCC[C@H](N)C(=O)O [Methionine]
measured: > 200 µM

---

Target: Tlp3^LBD D169A (Campylobacter jejuni, UniProt Q0P864, D169A)
Sequence (Q0P864 41-290 D169A): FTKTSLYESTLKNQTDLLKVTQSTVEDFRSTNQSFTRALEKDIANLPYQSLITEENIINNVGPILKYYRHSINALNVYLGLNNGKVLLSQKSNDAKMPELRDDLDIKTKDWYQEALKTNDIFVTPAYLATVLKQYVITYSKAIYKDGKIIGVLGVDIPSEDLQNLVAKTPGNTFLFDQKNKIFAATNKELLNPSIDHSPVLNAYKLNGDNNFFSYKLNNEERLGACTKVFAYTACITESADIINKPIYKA
Experiment: biochemical
Reported Kd values for a set of molecules
observed property: Kd (µM)

molecule: CC(=O)N[C@H]1[C@H]([C@H](O)[C@H](O)CO)OC(O)(C(=O)O)C[C@@H]1O (stereo partly drawn) [Sialic acid]
measured: 25.2
//
molecule: N[C@H]1C(O)O[C@H](CO)[C@@H](O)[C@@H]1O (stereo partly drawn) [Glucosamine]
measured: 38.4
//
molecule: NCCCC[C@H](N)C(=O)O [Lysine]
measured: 29.2
//
molecule: C[C@H](O)[C@@H](O)[C@@H](O)[C@H](O)C=O [Fucose]
measured: 50
//
molecule: c1ncc2nc[nH]c2n1 [Purine]
measured: 15.7
//
molecule: Cc1ncc(C[n+]2csc(CCO)c2C)c(N)n1 [Thiamine]
measured: 62
